Each recorded value in this set is attributed to patent US12351574B2.

# assaySystem: GIRK1/2(IV-VT) (UniProt P48542+P48549, I97V/V99T)
# Sequence (P48549 whole entry): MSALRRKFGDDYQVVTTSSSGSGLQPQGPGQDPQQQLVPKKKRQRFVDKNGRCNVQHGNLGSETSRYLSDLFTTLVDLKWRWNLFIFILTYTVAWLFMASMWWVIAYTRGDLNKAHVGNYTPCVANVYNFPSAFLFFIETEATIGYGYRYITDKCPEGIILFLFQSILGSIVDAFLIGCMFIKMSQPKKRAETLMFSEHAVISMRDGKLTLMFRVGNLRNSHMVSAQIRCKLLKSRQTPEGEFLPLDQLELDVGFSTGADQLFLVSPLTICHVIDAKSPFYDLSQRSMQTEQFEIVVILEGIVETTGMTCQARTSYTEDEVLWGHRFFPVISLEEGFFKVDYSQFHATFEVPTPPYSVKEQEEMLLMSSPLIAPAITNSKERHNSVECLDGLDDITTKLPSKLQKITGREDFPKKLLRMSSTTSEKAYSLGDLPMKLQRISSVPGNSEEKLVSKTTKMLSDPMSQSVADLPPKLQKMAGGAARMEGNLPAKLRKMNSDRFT
# Sequence (P48542 whole entry I97V/V99T): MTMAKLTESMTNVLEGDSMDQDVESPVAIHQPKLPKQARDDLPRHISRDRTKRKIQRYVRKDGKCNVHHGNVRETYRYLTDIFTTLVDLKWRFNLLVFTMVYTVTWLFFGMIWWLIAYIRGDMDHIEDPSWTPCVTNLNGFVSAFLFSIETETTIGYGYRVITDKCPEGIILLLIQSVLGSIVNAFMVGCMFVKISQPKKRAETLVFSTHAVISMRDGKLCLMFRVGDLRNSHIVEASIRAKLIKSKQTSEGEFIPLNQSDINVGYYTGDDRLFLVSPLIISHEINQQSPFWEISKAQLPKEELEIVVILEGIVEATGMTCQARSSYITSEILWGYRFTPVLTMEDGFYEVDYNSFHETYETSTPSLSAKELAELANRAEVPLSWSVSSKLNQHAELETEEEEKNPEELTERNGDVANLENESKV
# testSummary: TEVC in Xenopus oocytes, double mutant GIRK1/2(IV-VT)
# measurementParameters: GIRK1/2(IV-VT) double mutant
# Description: Molecular biology: For Xenopus oocyte expression, human GIRK1 and human GIRK4 cDNAs were subcloned into pGEMHE. For mammalian expression, human GIRK1 and human GIRK4 cDNAs were subcloned into pcDNA3 and pcDNA3.1/V5-His B, respectively (Invitrogen). Mouse GIRK2 cDNA was subcloned in the dual-function vector, pXoom. […] Electrophysiology of oocytes: Whole-oocyte currents were measured by conventional two-electrode voltage clamp (TEVC) with a GeneClamp 500 amplifier (Axon Instruments). […]
valueType: pEC50
# pEC50 is unitless: minus log10 of the molar concentration; print number only

[Q] Would you mind telling me what pEC50 value was observed for `Cc1cc(NC(=O)Nc2ccc(Br)s2)n(-c2ccccc2)n1` ?
[A] 6.03
